Target: T1, CRBN, Q96SW2;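 further: pooled lentiviral library of zinc finger degron-EGFP fusions in mCherry-positive Jurkat cells, FACS-sorted after compound exposure, with degron abundance counted by next-generation sequencing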
T1 chain: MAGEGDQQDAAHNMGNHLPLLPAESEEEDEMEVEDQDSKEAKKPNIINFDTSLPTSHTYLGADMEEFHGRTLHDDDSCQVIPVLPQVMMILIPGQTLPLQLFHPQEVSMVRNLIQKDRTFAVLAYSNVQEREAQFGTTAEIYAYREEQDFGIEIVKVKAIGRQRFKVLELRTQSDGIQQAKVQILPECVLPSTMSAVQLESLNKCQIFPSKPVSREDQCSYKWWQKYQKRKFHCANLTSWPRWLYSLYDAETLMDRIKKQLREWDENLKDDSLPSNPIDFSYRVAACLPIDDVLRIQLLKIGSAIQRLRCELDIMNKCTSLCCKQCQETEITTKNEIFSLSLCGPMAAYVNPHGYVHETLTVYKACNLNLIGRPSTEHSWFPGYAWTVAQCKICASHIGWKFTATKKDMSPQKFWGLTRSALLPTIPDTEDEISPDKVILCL
Assay: log2 fold change of degron read counts, EGFP-low vs EGFP+ sorted cells (limma voom), compound-induced degradation; higher = more compound-induced degradation of the degron-EGFP fusion; degrons are variants of IKZF1/3 zinc finger 2; compound dose not given here
Details: Jurkat; 18 h; compound: compound 19 (5-tert-butyl-thalidomide)
Whole data set: some 8,300 sequences, median “log2 fold change of degron read counts, EGFP-low vs EGFP+ sorted cells (limma voom), compound-induced degradation” near -1.1, cut for the highest 2% near 3.2. The entries come from a sample that favours the highest values as a whole.
Given measured log2 fold change of degron read counts, output yes if it is greater than or equal to 2 and no if not.

# Item sequence, Group
data = [
    ("LNCPICGFSCTQKGNLLRHIKL [46L_47N_49P_50I_52G_53F_54S_55C_67L_, Q9UKT9]", "yes"),
    ("LICEICGFTCTQKGNLLRHIKL [46L_47I_49E_50I_52G_53F_54T_55C_67L_, Q9UKT9]", "no"),
    ("FWCDICGALFTQKGNLLRHIKL [46F_47W_49D_50I_52G_53A_54L_55F_67L_, Q9UKT9]", "yes"),
    ("LDCPICGFQCTQKGNLLRHIKL [46L_47D_49P_50I_52G_53F_54Q_55C_67L_, Q9UKT9]", "no"),
    ("FRCNICGASFTQKGNLLRHIKL [46F_47R_49N_50I_52G_53A_54S_55F_67L_, Q9UKT9]", "no"),
    ("FGCDQCGATFTQKGNLLRHIKL [46F_47G_49D_50Q_52G_53A_54T_55F_67L_, Q9UKT9]", "no"),
    ("LVCPICGFSCTQKGNLLRHIKL [46L_47V_49P_50I_52G_53F_54S_55C_67L_, Q9UKT9]", "yes"),
]
